Listed next: entries and their corresponding pKd.
system.name: proMMP9(20-445;ΔFnII) (SEQ ID NO:6) (Homo sapiens, UniProt P14780, DEL216-390)
Construct: start methionine (N)
Sequence (P14780 with tags, fused parts or gaps DEL216-390): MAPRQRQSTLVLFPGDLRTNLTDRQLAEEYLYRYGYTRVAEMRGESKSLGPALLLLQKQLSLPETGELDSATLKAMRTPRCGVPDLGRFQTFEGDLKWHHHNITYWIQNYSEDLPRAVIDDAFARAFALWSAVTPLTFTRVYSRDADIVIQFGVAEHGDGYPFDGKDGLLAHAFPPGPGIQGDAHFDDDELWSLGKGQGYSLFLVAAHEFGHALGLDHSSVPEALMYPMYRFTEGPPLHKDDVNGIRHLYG
protocol.details: ThermoFluor binding assay with proMMP9(20-445;ΔFnII)
run.parameters: pH 7.0
// pKd here means minus log10 of the molar concentration (mol/L)

Completed entries (count: 3):
compound	pKd
COc1ccc(C(N)=O)cc1Nc1nc(-c2sc(C)nc2C)cs1 [Example 18]	6.47
CNC(=O)c1ccc(OC)c(Nc2nc(-c3sc(NC(C)=O)nc3C)cs2)c1 [Example 65]	5.52
Cc1nc(S(C)(=O)=O)sc1-c1csc(Nc2cc(C(N)=O)ccc2OC(C)C)n1 [Example 132]	5.37

// next entry
Let me check: CC(=O)Nc1nc(C)c(-c2csc(Nc3cc(S(C)(=O)=O)ccc3OC(C)C)n2)s1 [Example 43] , system proMMP9(20-445;ΔFnII) (SEQ ID NO:6) (Homo sapiens, UniProt P14780, DEL216-390), measured pKd is 6.23
